Organism: Cavia porcellus
Assay: Inhibitory effect on the response of isolated ileum to acetylcholine (anti-ACh activity) in guinea pig was determined
Assay type: functional
MEASURED_QUANTITY: log10 of ID50 (log10 of the value in µM)
Reminder: these figures are log10 of reported ID50, in µM before transformation.

Recorded log10 of ID50 (compound "Cl.N#C/C(=C\c1ccccc1OCCN1CCOCC1)c1noc2ccccc12.O" ): 1.34

Looking up CN1[C@@H]2CC[C@H]1C[C@@H](OC(=O)C(CO)c1ccccc1)C2.O=S(=O)(O)O (some centres not stated) [ATROPINE SULFATE] , I see its log10 of ID50 listed as -2.14

Note to self: log10 of ID50 recorded for CCCC[N+]1(C)[C@@H]2C[C@@H](OC(=O)[C@H](CO)c3ccccc3)C[C@H]1[C@@H]1O[C@@H]12.[Br-] (some centres not stated) [BUTYLSCOPOLAMINE BROMIDE] was -1.12

"COc1ccc2onc(/C(C#N)=C/c3ccccc3OCCN3CCCCC3)c2c1.Cl.O" has a reported log10 of ID50 of 1.40

New cases:
// recorded log10 of ID50 for "Cl.N#C/C(=C\c1ccccc1OCCN1CCCCC1)c1noc2ccccc12.O" : 0.94

Data point: "CN(C)CCOc1ccccc1/C=C(\C#N)c1noc2ccccc12.Cl.O" ; log10 of ID50 = 1.20

The compound listed as "COc1ccc2onc(/C(C#N)=C/c3ccccc3OCCN3CCOCC3)c2c1.Cl" has a reported log10 of ID50 of 1.51
